Test system: Human primary T cells
procedure summary: IL-2 ELISA, human primary T cell, anti-CD3+CD28+ (whole cell assay)
Assay type: cell-based
condition context: Homo sapiens, T-cell, 24 h, human primary T cells stimulated with anti-CD3 + anti-CD28, 24 hours
pIC50: −log10 of the molar value.
observable: pIC50

# annotated cases, reported pIC50 shown
• CN1C(C)(C)CC(Nc2nc(Nc3cc(F)c(OC4CCN(S(C)(=O)=O)CC4)c(F)c3)ncc2F)CC1(C)C = 6.00 to 6.30
• CCOc1ccc(Nc2ncc(F)c(NC3CC(C)(C)N(C)C(C)(C)C3)n2)cc1-n1c(C)ccc1C = < 6.00
• CC1(C)CC(Nc2nc(Nc3cc(F)cc(OCCCn4cccc4)c3)ncc2F)CC(C)(C)N1 = 6.00 to 6.30
• CC1(C)CC(Nc2nc(Nc3cc(C4CC4)cc(-n4cnnn4)c3)ncc2F)CC(C)(C)N1 = > 6.60
• CC(C)Oc1ncc(Nc2ncc(C#N)c(NC3CC(C)(C)NC(C)(C)C3)n2)cc1-c1nnnn1C = < 6.00
• CN1C(C)(C)CC(Nc2nc(Nc3ccc(Oc4cccnc4)c(OC(F)F)c3)ncc2F)CC1(C)C = 6.30 to 6.60
• CN1C(C)(C)CC(Nc2nc(Nc3ccc(Oc4cccnc4)c(OC(F)F)c3)ncc2C#N)CC1(C)C = > 6.60

(Q) Quick check: pIC50 of CC(C)Nc1cc(Nc2ncc(F)c(NC3CC(C)(C)NC(C)(C)C3)n2)ccc1OC(C)C ?
(A) < 6.00

----------
Tested on: Human primary T cells
procedure summary: IL-2 ELISA, human primary T cell, anti-CD3+CD28+ (whole cell assay)
Format: cell-based
condition context: Homo sapiens, T-cell, 24 h, human primary T cells stimulated with anti-CD3 + anti-CD28, 24 hours
Entries and their measured IC50 follow.

# annotated cases, reported IC50 shown
• CN1C(C)(C)CC(Nc2nc(Nc3ccc(OCCN4CCNC4=O)c(OC(F)F)c3)ncc2F)CC1(C)C [Compound I-51] = 500 to 1000 nM
• CN1C(C)(C)CC(Nc2nc(Nc3cc(F)c(F)c(-c4nnnn4C)c3)ncc2F)CC1(C)C [III-137] = < 250 nM
• CN1C(C)(C)CC(Nc2nc(Nc3ccc(OC4CCNCC4)c(OC(F)F)c3)ncc2F)CC1(C)C [III-27] = 250 to 500 nM
• CN1C(C)(C)CC(Nc2nc(Nc3ccc(-c4cccnc4)c(OC(F)F)c3)ncc2F)CC1(C)C [Compound I-64] = < 250 nM
• CC(C)N1CCC(Oc2ccc(Nc3ncc(F)c(NC4CC(C)(C)N(C)C(C)(C)C4)n3)cc2C#N)CC1 [Compound I-151] = 500 to 1000 nM

(Q) Quick check: IC50 of CC1(C)CC(Nc2nc(Nc3ccc(OC4CCN(CC(F)(F)F)CC4)c(OC(F)F)c3)ncc2F)CC(C)(C)N1 [Compound I-144] ?
(A) 500 to 1000 nM

(Q) Then what about the compound CCOc1ncc(Nc2ncc(F)c(NC3CC(C)(C)N(C)C(C)(C)C3)n2)cc1OC(F)F [Compound I-117] ?
(A) 250 to 500 nM

(Q) Then what about the compound CC(=O)N1CCCC(Oc2ccc(Nc3ncc(F)c(NC4CC(C)(C)NC(C)(C)C4)n3)cc2OC(F)F)CC1 (stereo not drawn) [III-42] ?
(A) 500 to 1000 nM

(Q) Then what about the compound CN1C(C)(C)CC(Nc2nc(Nc3ccc(O[C@H]4CCOC4)c(OC(F)F)c3)ncc2F)CC1(C)C [III-99] ?
(A) < 250 nM

(Q) Then what about the compound CC1(C)CC(Nc2nc(Nc3cc(F)c(OC4CCN(CCOCc5ccccc5)CC4)c(F)c3)ncc2F)CC(C)(C)N1 [III-55] ?
(A) 500 to 1000 nM

(Q) Then what about the compound CC1(C)CC(Nc2nc(Nc3ccc(OCCn4cncn4)c(OC(F)F)c3)ncc2F)CC(C)(C)N1 [Compound I-25] ?
(A) > 1000 nM

----------
Test system: Human primary T cells
procedure summary: IL-2 ELISA, human primary T cell, anti-CD3+CD28+ (whole cell assay)
Format: cell-based
condition context: Homo sapiens, T-cell, 24 h, human primary T cells stimulated with anti-CD3 + anti-CD28, 24 hours
Entries and their measured IC50 follow.

- CCOc1ccc(Nc2ncc(F)c(NC3CC(C)(C)NC(C)(C)C3)n2)cc1-n1c(C)ccc1C: 500 to 1000 nM

(Q) Quick check: IC50 of CN1C(C)(C)CC(Nc2nc(Nc3ccc4c(c3)OCC(CN3CCOCC3)O4)ncc2F)CC1(C)C (stereo not shown) ?
(A) > 1000 nM

(Q) Then what about the compound CN1C(C)(C)CC(Nc2nc(Nc3ccc(Oc4ccncc4)c(C(F)(F)F)c3)ncc2F)CC1(C)C ?
(A) > 1000 nM

(Q) Then what about the compound CN1C(C)(C)CC(Nc2nc(Nc3cccc(-c4nn[nH]n4)c3)ncc2F)CC1(C)C ?
(A) > 1000 nM

----------
Test system: Human primary T cells
procedure summary: IL-2 ELISA, human primary T cell, anti-CD3+CD28+ (whole cell assay)
Assay type: cell-based
condition context: Homo sapiens, T-cell, 24 h, human primary T cells stimulated with anti-CD3 + anti-CD28, 24 hours
Description: Human primary T cells were prepared as follows. […] Human primary T cells (100,000 cells per well) were pre-incubated with or without test compound in Yssel's medium for 1 hr at 37° C. […] Cells were incubated at 37° C. for 24 hours before 100 μL supernatants were harvested for quantification of IL-2 by ELISA using Human IL-2 Duoset ELISA Kit from R and D Systems, Cat. #DY202E. […]
observable: IC50

# annotated cases, reported IC50 shown
* CC(C)N1CC[C@@H](Oc2ccc(Nc3ncc(F)c(NC4CC(C)(C)NC(C)(C)C4)n3)cc2OC(F)F)C1 | 250 to 500 nM
* Cc1cc(Nc2ncc(F)c(NC3CC(C)(C)N(C)C(C)(C)C3)n2)cc(-c2nnnn2C)c1 | < 250 nM
* CC1(C)CC(Nc2nc(Nc3ccc(C4CC4)c(-n4cnnn4)c3)ncc2F)CC(C)(C)N1 | < 250 nM
* CC1CC(Nc2nc(Nc3ccc(F)c(-n4cnnn4)c3)ncc2F)CC(C)N1C1CC1 (stereo not shown) | 250 to 500 nM
* CC1(C)CC(Nc2nc(Nc3ccc4c(c3)OCC(C(=O)N3CCOCC3)O4)ncc2F)CC(C)(C)N1 (stereo not shown) | > 1000 nM

(Q) Quick check: IC50 of CC(C)Oc1ncc(Nc2ncc(C(N)=O)c(NC3CC(C)(C)N(C)C(C)(C)C3)n2)cc1-c1nnnn1C(C)C ?
(A) 500 to 1000 nM

(Q) Then what about the molecule CC(=O)N1CCCC(Oc2c(F)cc(Nc3ncc(F)c(NC4CC(C)(C)NC(C)(C)C4)n3)cc2F)CC1 (stereo not shown) ?
(A) > 1000 nM

(Q) Then what about the molecule Cc1nnnn1-c1cc(Nc2ncc(F)c(NC3CC(C)(C)NC(C)(C)C3)n2)cnc1OC(C)C ?
(A) < 250 nM

(Q) Then what about the molecule CC1CC(Nc2nc(Nc3cccc(-n4cnnn4)c3)ncc2F)CC(C)N1C1CC1 (stereo not shown) ?
(A) 250 to 500 nM

(Q) Then what about the molecule CN1C(C)(C)CC(Nc2nc(Nc3ccc(OCCn4cncn4)c(OC(F)F)c3)ncc2C#N)CC1(C)C ?
(A) 500 to 1000 nM

(Q) Then what about the molecule Cc1ccc(Nc2ncc(F)c(NC3CC(C)(C)NC(C)(C)C3)n2)cc1-c1nnnn1C ?
(A) 250 to 500 nM

(Q) Then what about the molecule CCNC(=O)N1CCCC(Oc2c(F)cc(Nc3ncc(F)c(NC4CC(C)(C)N(C)C(C)(C)C4)n3)cc2F)CC1 (stereo not shown) ?
(A) 500 to 1000 nM

(Q) Then what about the molecule CC(C)N1CCC(Oc2ccc(Nc3ncc(F)c(NC4CC(C)(C)NC(C)(C)C4)n3)cc2F)CC1 ?
(A) 250 to 500 nM

(Q) Then what about the molecule CC1(C)CC(Nc2nc(Nc3cc(F)c(OC4CCN(CCO)CC4)c(F)c3)ncc2F)CC(C)(C)N1 ?
(A) > 1000 nM

(Q) Then what about the molecule CC(=O)N1CCC(Oc2ccc(Nc3ncc(F)c(NC4CC(C)(C)N(C)C(C)(C)C4)n3)cc2F)CC1 ?
(A) > 1000 nM

(Q) Then what about the molecule CN1C(C)(C)CC(Nc2nc(Nc3cc(OC4COC4)cc(-c4nnnn4C)c3)ncc2F)CC1(C)C ?
(A) 250 to 500 nM

(Q) Then what about the molecule CN1C(C)(C)CC(Nc2nc(Nc3ccc(OC4CCN(CC(N)=O)CC4)c(F)c3)ncc2F)CC1(C)C ?
(A) > 1000 nM

(Q) Then what about the molecule CC1(C)CC(Nc2nc(Nc3cc(OC(F)F)cc(C(F)(F)F)c3)ncc2F)CC(C)(C)N1 ?
(A) 500 to 1000 nM

(Q) Then what about the molecule CC(C)Oc1ncc(Nc2ncc(F)c(NC3CC(C)(C)N(C)C(C)(C)C3)n2)cc1-c1nnnn1C1CC1 ?
(A) < 250 nM

The origin of these recorded values is patent US9149475B2.
